We begin with a simple list: items and their reported self-cleavage.
B1: HDV Ribozyme (parent)
chain: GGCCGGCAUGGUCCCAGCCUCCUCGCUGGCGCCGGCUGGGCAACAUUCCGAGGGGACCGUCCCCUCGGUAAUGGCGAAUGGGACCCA

Variants of: B1
Experiment: self-cleavage, relative activity (ratio to wild type); higher = more cleavage; co-transcriptional
Answer as a number with no unit attached.

* C13G A43C | 0.262

Please give the measured self-cleavage for this variant: G34C G50U 0.175

Note, next up: G2C G25U 0.0702

Source of measurements: the RNAGym collection of RNA variant scans (doi:10.7554/elife.80360)
